From: ChEMBL document CHEMBL6096689

- assay overview: Therapeutic index, ratio of IC50 for HEK293T/17 cells to MIC for methicillin resistant Staphylococcus aureus NRS 119
- Assay type: toxicity, cell-based
- particulars: human, read-out: TI
endpoint: selectivity ratio
Output: the number by itself.

Give its selectivity ratio value. Item: `C[C@@H]1C[C@H]2C(=O)OC[C@H](NC(=O)[C@H](Cc3cc(F)cc(F)c3)NC(=O)CCC3CCCCC3)C(=O)N3CCC[C@H]3C(=O)N3CCCC[C@H]3C(=O)N[C@@H](C)C(=O)N2C1`
9.3

====

- Tested on: Staphylococcus aureus
- assay overview: microbe, parasite or virus in culture
- Assay type: functional
- particulars: NRS-108, time 18 hrs
- Description: Antibacterial activity against methicillin-resistant Staphylococcus aureus NRS-108 assessed as inhibition of visible growth of bacteria incubated for 18 hrs by absorbance based analysis
Here the recorded MIC is given for each entry.

These solved cases illustrate the format of a correct answer.
INSERT INTO results (molecule, assayed_target, result) VALUES
  ('CN[C@@H]1[C@@H](O)[C@@H](O[C@@H]2[C@@H](O)[C@H](O[C@H]3O[C@H](CN)CC[C@H]3N)[C@@H](N)C[C@H]2N)OC[C@]1(C)O', 'Staphylococcus aureus', '0.25 µg/mL'),
  ('CC1(C)S[C@@H]2[C@H](NC(=O)[C@H](N)c3ccccc3)C(=O)N2[C@H]1C(=O)O', 'Staphylococcus aureus', '4 µg/mL');

Now look at this one.
Lab request: please report MIC under test system Staphylococcus aureus for `CC[C@H]1OC(=O)[C@H](C)[C@@H](O[C@H]2C[C@@](C)(OC)[C@@H](O)[C@H](C)O2)[C@H](C)[C@@H](O[C@@H]2O[C@H](C)C[C@H](N(C)C)[C@H]2O)[C@](C)(O)C[C@@H](C)C(=O)[C@H](C)[C@@H](O)[C@]1(C)O`
> 128 µg/mL

====

- Test system: Staphylococcus aureus
- assay overview: microbe, parasite or virus in culture
- Type: functional
- particulars: time 18 hrs
- Description: Antibacterial activity against multidrug-resistant Staphylococcus aureus clinical isolate XJ049 assessed as inhibition of visible growth of bacteria incubated for 18 hrs by absorbance based analysis
Here the recorded MIC is given for each entry.

These solved cases illustrate the format of a correct answer.
INSERT INTO assay_data (molecule, result) VALUES
  ('Cc1onc(-c2ccccc2)c1C(=O)N[C@@H]1C(=O)N2[C@@H]1SC(C)(C)[C@@H]2C(=O)O [OXACILLIN]', '> 128 µg/mL'),
  ('CC1(C)S[C@@H]2[C@H](NC(=O)[C@H](N)c3ccccc3)C(=O)N2[C@H]1C(=O)O [AMPICILLIN]', '64 µg/mL'),
  ('CCC[C@@H]1C[C@@H](C(=O)N[C@@H]([C@H]2O[C@H](SC)[C@H](O)[C@@H](O)[C@H]2O)[C@H](C)Cl)N(C)C1 [CLINDAMYCIN]', '> 128 µg/mL');

Give its MIC value. Item: NC[C@H]1O[C@H](O[C@H]2[C@H](O)[C@@H](O[C@H]3O[C@H](CO)[C@@H](O)[C@H](N)[C@H]3O)[C@H](N)C[C@@H]2N)[C@H](O)[C@@H](O)[C@@H]1O [KANAMYCIN]
> 128 µg/mL

====

Here the recorded pEC50 is given for each entry.
- assayed target: ATP-dependent Clp protease proteolytic subunit (Escherichia coli (strain K12), UniProt P0A6G7)
- Sequence (P0A6G7 whole entry): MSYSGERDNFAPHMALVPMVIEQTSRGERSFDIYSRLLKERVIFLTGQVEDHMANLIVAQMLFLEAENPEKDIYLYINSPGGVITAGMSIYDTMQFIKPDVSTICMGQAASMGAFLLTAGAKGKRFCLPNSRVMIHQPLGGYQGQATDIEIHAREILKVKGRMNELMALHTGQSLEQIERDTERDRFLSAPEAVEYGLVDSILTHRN
- assay overview: Agonist activity at Escherichia coli ClpP using alpha-casein as substrate assessed as substrate hydrolysis preincubated for 15 mins followed by substrate addition and measured after 2 hrs by SDS-PAGE analysis
pEC50: −log10 of the molar value.

These solved cases illustrate the format of a correct answer.
INSERT INTO results (molecule, result) VALUES
  ('CC[C@H](C)[C@H]1C(=O)N(Cc2ccc(OC)c3ccccc23)C[C@@H]2N(C(=O)NCCCC(F)(F)F)CCC(=O)N12', '< 4.00'),
  ('CC[C@H](C)[C@H]1C(=O)N([C@H](C)c2cccc3ccccc23)C[C@@H]2N(C(=O)NCCCC(F)(F)F)CCC(=O)N12', '< 4.00');

Give its pEC50 value. Item: `O=C1C2=C(CCN(Cc3ccccc3)C2)N2CCN=C2N1Cc1ccc(C(F)(F)F)cc1`
5.40
